Parameter ELISA ratio: see the listing below.
molecular target: Feline_OSMR_hlgG1_Fc (feline); assay: indirect ELISA, fOSMR coated; OD ratio to antibody expression control
Sequence (chain, as listed by the source limits assumed, form in doubt): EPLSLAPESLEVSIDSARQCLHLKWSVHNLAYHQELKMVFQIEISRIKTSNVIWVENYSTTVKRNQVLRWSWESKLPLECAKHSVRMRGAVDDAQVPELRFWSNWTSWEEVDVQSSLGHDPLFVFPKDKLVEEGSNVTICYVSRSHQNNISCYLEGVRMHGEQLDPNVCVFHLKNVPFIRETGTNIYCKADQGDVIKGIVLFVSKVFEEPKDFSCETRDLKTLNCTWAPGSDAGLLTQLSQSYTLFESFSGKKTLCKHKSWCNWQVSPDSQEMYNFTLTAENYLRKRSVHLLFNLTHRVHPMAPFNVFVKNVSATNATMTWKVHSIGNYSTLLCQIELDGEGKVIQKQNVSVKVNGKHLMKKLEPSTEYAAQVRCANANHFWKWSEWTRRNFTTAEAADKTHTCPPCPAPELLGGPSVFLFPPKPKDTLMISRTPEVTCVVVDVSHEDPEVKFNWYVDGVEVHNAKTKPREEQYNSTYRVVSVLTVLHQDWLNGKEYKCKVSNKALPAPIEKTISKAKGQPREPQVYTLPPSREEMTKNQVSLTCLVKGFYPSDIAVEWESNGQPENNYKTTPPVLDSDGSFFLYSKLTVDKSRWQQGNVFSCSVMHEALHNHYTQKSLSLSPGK
Give a bare numeral; the unit OD ratio is implied.

Guide cases for ELISA ratio, answers given:
Mu_19F07_VL (SEQ ID NO: 49)_Q90A (antibody, V domains shown) VH: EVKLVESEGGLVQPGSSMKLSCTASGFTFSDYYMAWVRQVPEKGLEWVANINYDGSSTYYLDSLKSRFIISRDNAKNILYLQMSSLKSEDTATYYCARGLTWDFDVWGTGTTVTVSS VL: DIVMTQSHKFMSPSVGDRVSITCKASQDVDTAVAWYQQKPGQSPKLLIYLASTRHTGVPDRFTGSGSGTDFTLTISNVQSEDLADYFCQAYSRFPLTFGAGTKLELKR ... 1.08
Mu_09E09_VH (SEQ ID NO: 35)_D99A (antibody, V domains shown) VH: DVKLVESGEGLVKPGGSLKLSCAASGFTFSSYAMSWVRQTPEKRLEWVAYISSGGDYIYYADTVKGRFTISRDNARNTLYLQMSSLKSEDTAMYYCTRAPITGTFAYWGQGTLVTVSA VL: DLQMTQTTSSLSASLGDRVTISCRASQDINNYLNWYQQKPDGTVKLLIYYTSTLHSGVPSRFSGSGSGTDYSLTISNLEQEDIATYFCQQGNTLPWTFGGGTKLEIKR ... 0.908

Request: Reported ELISA ratio, binder Mu_19F07_VH (SEQ ID NO: 47)_Y60A (antibody, V domains shown) VH: EVKLVESEGGLVQPGSSMKLSCTASGFTFSDYYMAWVRQVPEKGLEWVANINYDGSSTYALDSLKSRFIISRDNAKNILYLQMSSLKSEDTATYYCARGLTWDFDVWGTGTTVTVSS VL: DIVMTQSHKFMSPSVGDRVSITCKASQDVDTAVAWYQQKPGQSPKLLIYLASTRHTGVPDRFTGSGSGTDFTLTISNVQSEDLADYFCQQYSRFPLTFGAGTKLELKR : ____
Response: 0.479

src = patent US20220177594A1
